Reference for the values: patent US7846941B2

Target: UniProtKB P10721
Sequence (P10721 with tags, fused parts or gaps): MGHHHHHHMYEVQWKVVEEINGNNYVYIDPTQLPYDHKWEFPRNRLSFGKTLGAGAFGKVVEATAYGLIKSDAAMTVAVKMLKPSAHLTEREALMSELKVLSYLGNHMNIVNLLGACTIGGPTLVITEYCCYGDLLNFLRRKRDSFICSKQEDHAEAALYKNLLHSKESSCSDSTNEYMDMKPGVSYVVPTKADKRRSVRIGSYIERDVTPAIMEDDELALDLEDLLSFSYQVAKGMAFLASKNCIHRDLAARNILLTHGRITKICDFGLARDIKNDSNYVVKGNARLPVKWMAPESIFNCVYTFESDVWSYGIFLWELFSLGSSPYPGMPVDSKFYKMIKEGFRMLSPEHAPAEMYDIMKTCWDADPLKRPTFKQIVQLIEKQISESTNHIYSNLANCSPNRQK
Test: c-kit assays of Examples 40 and 41 (AlphaScreen and 33P kinase assays, M-07e proliferation and phosphorylation)
Listed next: entries and their corresponding IC50.

In the examples that follow, each entry is paired with its recorded IC50.
- smiles-data: "CC(C)(C)Oc1ccc(Cc2c[nH]c3ncccc23)cn1"
  experimental-target: "UniProtKB P10721"
  IC50: "< 1 µM"
- smiles-data: "O=C(Nc1ccc(Cc2c[nH]c3ncccc23)cn1)c1ccc(F)cc1"
  experimental-target: "UniProtKB P10721"
  IC50: "< 1 µM"
- smiles-data: "COc1cnc2[nH]cc(Cc3ccc(NCc4ccc(Cl)cc4)nc3)c2c1"
  experimental-target: "UniProtKB P10721"
  IC50: "< 1 µM"
- smiles-data: "CCN(CC)CCOc1cnc2[nH]cc(Cc3ccc(NCc4ccc(C(F)(F)F)cc4)nc3)c2c1"
  experimental-target: "UniProtKB P10721"
  IC50: "< 1 µM"
- smiles-data: "Clc1ccc(CNc2ccc(Cc3c[nH]c4ncc(Cl)cc34)cn2)cc1"
  experimental-target: "UniProtKB P10721"
  IC50: "< 1 µM"

Quick note, IC50 for `O=C(c1ccc(NCc2cccc(F)c2)nc1)c1c[nH]c2ncccc12` landed at < 1 µM

Quick note, IC50 for `FC(F)(F)c1cccc(COc2ccc(Cc3c[nH]c4ncccc34)cn2)c1` landed at < 1 µM

Quick note, IC50 for `CC(C)Nc1ccc(C(=O)c2c[nH]c3ncccc23)cn1` landed at < 1 µM
